# SYSTEM: human mGluR2 (Homo sapiens (Human), UniProt Q14416)
# Sequence (Q14416 19-872): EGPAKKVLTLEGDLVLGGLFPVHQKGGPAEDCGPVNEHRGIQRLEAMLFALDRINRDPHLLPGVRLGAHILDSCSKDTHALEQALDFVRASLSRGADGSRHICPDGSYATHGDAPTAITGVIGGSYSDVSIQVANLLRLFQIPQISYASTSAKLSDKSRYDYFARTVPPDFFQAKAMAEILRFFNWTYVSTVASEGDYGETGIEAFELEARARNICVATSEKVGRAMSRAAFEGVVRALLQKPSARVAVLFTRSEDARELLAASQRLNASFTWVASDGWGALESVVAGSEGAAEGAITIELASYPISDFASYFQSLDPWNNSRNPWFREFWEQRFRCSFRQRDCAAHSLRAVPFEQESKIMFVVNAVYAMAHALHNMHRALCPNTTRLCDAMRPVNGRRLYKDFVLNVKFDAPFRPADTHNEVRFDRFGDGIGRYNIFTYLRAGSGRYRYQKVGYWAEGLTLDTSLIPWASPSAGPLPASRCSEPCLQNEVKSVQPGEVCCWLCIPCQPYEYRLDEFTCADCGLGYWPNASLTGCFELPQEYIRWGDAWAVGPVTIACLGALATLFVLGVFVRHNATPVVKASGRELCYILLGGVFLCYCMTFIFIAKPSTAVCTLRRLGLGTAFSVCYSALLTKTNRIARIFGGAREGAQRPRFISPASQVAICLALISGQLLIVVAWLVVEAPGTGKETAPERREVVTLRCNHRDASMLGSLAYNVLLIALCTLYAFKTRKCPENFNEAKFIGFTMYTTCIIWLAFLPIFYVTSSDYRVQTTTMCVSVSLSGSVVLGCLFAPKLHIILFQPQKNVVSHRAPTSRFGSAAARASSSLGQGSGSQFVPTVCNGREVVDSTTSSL
# METHOD: MGluR2 cAMP assay
# RUN_CONDITIONS: HEK293 cells clonally expressing human mGluR2, 1 μM forskolin, 1 μM LY-341495
ASSAY_METRIC: pEC50
As a rule, pEC50 stands for the negative log10 of the concentration, concentration in M.

Below: 10 compounds and their reported pEC50.
Ask: Given the entry Clc1c(N2CCC(c3ccccc3)CC2)cnn2c(CCC3CC3)nnc12 , what pEC50 was observed with human mGluR2 (Homo sapiens (Human), UniProt Q14416)?
Result: 6.92

Ask: Also need Clc1c(N2CCC(Cc3ccccc3)CC2)ncn2c(CC3CC3)nnc12 , thanks.
Result: 7.21

Ask: Also need FC(F)(F)Cc1nnc2c(Cl)c(N3CCC(c4ccccc4)CC3)cnn12 , thanks.
Result: 7.21

Ask: Also need CC(C)(C)Cc1nnc2c(Cl)c(N3CCC(c4ccc(F)cc4)CC3)cnn12 , thanks.
Result: 6.84

Ask: Also need Clc1cc(Cl)cc(C2CCN(c3cnn4c(CC5CC5)nnc4c3Cl)CC2)c1 , thanks.
Result: 6.84

Ask: Also need COc1cccc(F)c1C1CCN(c2cc3nnc(CC4CC4)n3cn2)CC1 , thanks.
Result: 6.19

Ask: Also need COc1c(F)ccc(F)c1C1CCN(c2cnn3c(CC(F)(F)F)nnc3c2C(F)(F)F)CC1 , thanks.
Result: 9.40

Ask: Also need N#Cc1ccccc1C1CCN(c2cnn3c(CC(F)(F)F)nnc3c2C(F)(F)F)CC1 , thanks.
Result: 8.15

Ask: Also need CC(C)(C)Cc1nnc2c(Cl)c(N3CCN(c4ncccn4)CC3)cnn12 , thanks.
Result: 6.36

Ask: Also need Fc1cc(OC(F)F)c(C2CCN(c3cnn4c(CC(F)(F)F)nnc4c3Cl)CC2)cc1F , thanks.
Result: 8.22

Further cases:
Ask: Given the entry Clc1c(NCC2Cc3ccccc3C2)cnn2c(CC3CC3)nnc12 , what pEC50 was observed with human mGluR2 (Homo sapiens (Human), UniProt Q14416)?
Result: 7.68

Ask: Also need FC(F)(F)c1c(N2CCC(c3ccccc3)CC2)cnn2c(CC3CC3)nnc12 , thanks.
Result: 8.52

Ask: Also need FC(F)(F)Cc1nnc2c(Cl)c(NC3CCC(c4ccccc4)CC3)cnn12 (centres unmarked) , thanks.
Result: 6.13

Ask: Also need COC(=O)c1ccccc1C1CCN(c2cnn3c(CC4CC4)nnc3c2Cl)CC1 , thanks.
Result: 7.42

Ask: Also need Fc1ccc([C@H]2C[C@@H]2CNc2cnn3c(CC4CC4)nnc3c2Cl)cc1 , thanks.
Result: 7.22

Ask: Also need Clc1c(N2CCC(c3ccccc3)CC2)ncn2c(CC3CC3)nnc12 , thanks.
Result: 8.10

Ask: Also need CC(C)Cc1nnc2c(Cl)c(N3CCC(c4ccccc4)CC3)cnn12 , thanks.
Result: 6.70

Ask: Also need CCN(CC1CC1c1ccc(F)cc1)c1cnn2c(CC3CC3)nnc2c1Cl (centres unmarked) , thanks.
Result: 6.37

Ask: Also need Cc1c(N2CCC(c3ccccc3)CC2)cnn2c(CC3CC3)nnc12 , thanks.
Result: 6.74

Ask: Also need Clc1c(NC2CCC(c3ccccc3)CC2)cnn2c(CC3CC3)nnc12 (centres unmarked) , thanks.
Result: 6.65

Ask: Also need Clc1ccccc1C1CCN(c2cnn3c(CC4CC4)nnc3c2Cl)CC1 , thanks.
Result: 7.35

Ask: Also need COc1cccc(F)c1C1CCN(c2cnn3c(CC(F)(F)F)nnc3c2Cl)CC1 , thanks.
Result: 8.70

Ask: Also need COc1ccc(OC)c(C2CCN(c3cnn4c(CC5CC5)nnc4c3Cl)CC2)c1 , thanks.
Result: 8.22

// data source = patent US9682980B2
